test system: NCI-H526 human SCLC cell line; test: In Vitro Cytotoxicity Assay III (WST-8 cell viability); type: cell-based; details: NCI-H526, 120 hours, WST-8, Table 5

| compound | IC50 [nM] |
| --- | --- |
| Cc1ccc(NC(=O)NCc2ccc3c(c2)CN(C2CCC(=O)NC2=O)C3=O)cc1Cl (stereo not shown) [CC-885, reference compound] | 0.128 |

----------
system: NCI-H146 SCLC cell line; assay: In Vitro Cytotoxicity Assay II (WST-8 cell viability); type: cell-based; conditions: NCI-H146, 120 hours, WST-8, Table 4

| compound | experimental target | u | IC50 |
| --- | --- | --- | --- |
| Cc1ccc(NC(=O)NCc2ccc3c(c2)CN(C2CCC(=O)NC2=O)C3=O)cc1Cl (stereo not shown) [CC-885, reference compound] | NCI-H146 SCLC cell line | nM | 0.527 |

----------
tested on: IMR32 human neuroblastoma (NB) cell line; assay: In Vitro Cytotoxicity Assay I (WST-8 cell viability); assay type: cell-based; settings: IMR32, 120 hours, WST-8, Table 3

| compound | experimental target | u | IC50 |
| --- | --- | --- | --- |
| Cc1ccc(NC(=O)NCc2ccc3c(c2)CN(C2CCC(=O)NC2=O)C3=O)cc1Cl (stereo not shown) [CC-885, reference compound] | IMR32 human neuroblastoma (NB) cell line | nM | 0.145 |

----------
system: IMR32 human neuroblastoma (NB) cell line; assay: In Vitro Cytotoxicity Assay III (WST-8 cell viability); format: cell-based; conditions: IMR32, 120 hours, WST-8, Table 5

| compound | experimental target | IC50 (nM) |
| --- | --- | --- |
| Cc1ccc(NC(=O)NCc2ccc3c(c2)CN(C2CCC(=O)NC2=O)C3=O)cc1Cl (stereo not shown) [CC-885, reference compound] | IMR32 human neuroblastoma (NB) cell line | 0.0994 |

----------
system: NCI-H526 SCLC cell line; assay: In Vitro Cytotoxicity Assay II (WST-8 cell viability); assay type: cell-based, human; conditions: NCI-H526, 120 hours, WST-8, Table 4

| compound | experimental target | IC50, nM |
| --- | --- | --- |
| Cc1ccc(NC(=O)NCc2ccc3c(c2)CN(C2CCC(=O)NC2=O)C3=O)cc1Cl (stereo not shown) [CC-885, reference compound] | NCI-H526 SCLC cell line | 0.177 |

----------
tested on: NCI-H82 SCLC cell line; test: In Vitro Cytotoxicity Assay II (WST-8 cell viability); assay type: cell-based; conditions: NCI-H82, 120 hours, WST-8, Table 4

| compound | IC50, nM |
| --- | --- |
| Cc1ccc(NC(=O)NCc2ccc3c(c2)CN(C2CCC(=O)NC2=O)C3=O)cc1Cl (stereo not shown) [CC-885, reference compound] | 0.603 |
